- Test system: 266 human PDZ domains (PDZome)
- assay-method-text: Holdup assay (chromatographic retention, PDZome-binding profile, BI)
- Set-up: key: binding intensity: 0.00 = no binding, 1.00 = maximal binding
- measurement-parameters: PDZ domain MPP4-1
*1 amine or outer side, *2 acyl side, *3 side chain or, on linkers, in order; H or OH if unused. Where a SMILES comes first, the peptide text is derived from it. The star is where a group is joined. X1 = O=C(CCCC[C@@H]1SC[C@@H]2NC(=O)N[C@@H]21)NCCCOCCOCCOCCCN*; Suc = O=C(CCC(=O)[*:2])[*:1]

{"compound": "CC[C@H](C)[C@H](NC(=O)[C@H](CCC(N)=O)NC(=O)[C@@H](NC(=O)[C@H](Cc1c[nH]cn1)NC(=O)[C@H](CCC(N)=O)NC(=O)[C@H](CC(=O)O)NC(=O)[C@H](CCC(=O)O)NC(=O)[C@H](CC(=O)O)NC(=O)CCC(=O)NCCCOCCOCCOCCCNC(=O)CCCC[C@@H]1SC[C@@H]2NC(=O)N[C@@H]21)[C@@H](C)O)C(=O)N[C@H](C(=O)N[C@@H](CCCNC(=N)N)C(=O)N[C@H](C(=O)O)C(C)C)[C@@H](C)O [PTEN_KR] ({X1-Suc}-DEDQHTQITRV-OH)", "BI": 0.067}
{"compound": "CC[C@H](C)[C@H](NC(=O)[C@H](CCC(N)=O)NC(=O)[C@@H](NC(=O)[C@H](Cc1c[nH]cn1)NC(=O)[C@H](CCC(N)=O)NC(=O)[C@H](CC(=O)O)NC(=O)[C@H](CCC(=O)O)NC(=O)[C@H](CC(=O)O)NC(=O)[C@H](Cc1ccccc1)NC(=O)[C@@H]1CCCN1C(=O)CCC(=O)NCCCOCCOCCOCCCNC(=O)CCCC[C@@H]1SC[C@@H]2NC(=O)N[C@@H]21)[C@@H](C)O)C(=O)N[C@H](C(=O)N[C@@H](CCCCN)C(=O)N[C@H](C(=O)O)C(C)C)[C@@H](C)O [PTEN_13] ({X1-Suc}-PFDEDQHTQITKV-OH)", "BI": 0}
{"compound": "CC[C@H](C)[C@H](NC(=O)[C@H](CCC(N)=O)NC(=O)[C@@H](NC(=O)[C@H](Cc1c[nH]cn1)NC(=O)[C@H](CCC(N)=O)NC(=O)[C@H](CC(=O)O)NC(=O)[C@H](CCC(=O)O)NC(=O)[C@H](CC(=O)O)NC(=O)CCC(=O)NCCCOCCOCCOCCCNC(=O)CCCC[C@@H]1SC[C@@H]2NC(=O)N[C@@H]21)[C@@H](C)O)C(=O)N[C@H](C(=O)N[C@@H](CCCCNC(C)=O)C(=O)N[C@H](C(=O)O)C(C)C)[C@@H](C)O", "BI": -0.043}
{"compound": "CC[C@H](C)[C@H](NC(=O)[C@H](CCC(N)=O)NC(=O)[C@@H](NC(=O)[C@H](Cc1c[nH]cn1)NC(=O)[C@H](CCC(N)=O)NC(=O)[C@H](CC(=O)O)NC(=O)[C@H](CCC(=O)O)NC(=O)[C@H](CC(=O)O)NC(=O)CCC(=O)NCCCOCCOCCOCCCNC(=O)CCCC[C@@H]1SC[C@@H]2NC(=O)N[C@@H]21)[C@@H](C)O)C(=O)N[C@H](C(=O)N[C@@H](CCCCN)C(=O)N[C@H](C(=O)O)C(C)C)[C@@H](C)O", "BI": 0.041}
